Measured values drawn from paper PMC5691623 for this set.

procedure details: in vitro
condition context: human
Criterion: CC50 strictly under 400 nM. Met: YES. Not met: NO.

Task item: CC50 under 400 nM? Item: `CN(C)CC[C@H](CSc1ccccc1)Nc1ccc(S(=O)(=O)NC(=O)c2ccc(N3CCN(Cc4ccccc4-c4ccc(Cl)cc4)CC3)cc2)cc1[N+](=O)[O-]`
Reply: YES

Task item: CC50 under 400 nM? Item: `Cc1c(-c2ccc(N3CCc4cccc(C(=O)Nc5nc6ccccc6s5)c4C3)nc2C(=O)O)cnn1CC12CC3CC(CC(C3)C1)C2`
Reply: YES

Task item: CC50 under 400 nM? Item: `CC1(C)CCC(c2ccc(Cl)cc2)=C(CN2CCN(c3ccc(C(=O)NS(=O)(=O)c4ccc(N[C@H](CCN5CCOCC5)CSc5ccccc5)c(S(=O)(=O)C(F)(F)F)c4)cc3)CC2)C1`
Reply: NO

Task item: CC50 under 400 nM? Item: `CN(C)CC#Cc1ccc(OCCCc2sc(N3CCc4cccc(C(=O)Nc5nc6ccccc6s5)c4C3)nc2C(=O)O)c(F)c1`
Reply: YES

Task item: CC50 under 400 nM? Item: `CC1(C)CCC(CN2CCN(c3ccc(C(=O)NS(=O)(=O)c4ccc(NCC5CCOCC5)c([N+](=O)[O-])c4)c(Oc4cnc5[nH]ccc5c4)c3)CC2)=C(c2ccc(Cl)cc2)C1`
Reply: NO
